Ref: patent US8987471B2

Target: human S1P1 receptor (Homo sapiens, UniProt P21453)
Construct: membranes used
Sequence (P21453 whole entry): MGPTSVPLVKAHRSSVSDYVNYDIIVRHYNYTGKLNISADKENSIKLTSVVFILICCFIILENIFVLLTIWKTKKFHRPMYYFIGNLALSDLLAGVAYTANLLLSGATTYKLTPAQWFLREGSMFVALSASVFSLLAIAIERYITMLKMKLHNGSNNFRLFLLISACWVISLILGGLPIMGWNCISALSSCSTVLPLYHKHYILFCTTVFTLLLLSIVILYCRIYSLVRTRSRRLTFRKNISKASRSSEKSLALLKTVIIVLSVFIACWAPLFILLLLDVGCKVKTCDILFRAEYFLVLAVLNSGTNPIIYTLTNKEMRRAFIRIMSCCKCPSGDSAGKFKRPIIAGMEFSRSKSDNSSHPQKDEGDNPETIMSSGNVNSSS
Experiment: GTP γ35S binding assay for S1P1 activity
Details: membranes of cells stably expressing the S1P1 receptor, test concentrations 0.08 to 5,000 nM

| compound | units-text | EC50 |
| --- | --- | --- |
| CCCN1N=C(COc2ccc(CNCCCP(=O)(O)O)cc2C)CC1c1ccccc1 (stereo not shown) [Compound 1] | µM | 0.057 |
